Sourced from paper PMC5730761

# subject_of_test: JFH-1 NS3 (Hepatitis C virus genotype 2a strain …, UniProt Q99IB8 1031-1661)
# Sequence (Q99IB8 1031-1661): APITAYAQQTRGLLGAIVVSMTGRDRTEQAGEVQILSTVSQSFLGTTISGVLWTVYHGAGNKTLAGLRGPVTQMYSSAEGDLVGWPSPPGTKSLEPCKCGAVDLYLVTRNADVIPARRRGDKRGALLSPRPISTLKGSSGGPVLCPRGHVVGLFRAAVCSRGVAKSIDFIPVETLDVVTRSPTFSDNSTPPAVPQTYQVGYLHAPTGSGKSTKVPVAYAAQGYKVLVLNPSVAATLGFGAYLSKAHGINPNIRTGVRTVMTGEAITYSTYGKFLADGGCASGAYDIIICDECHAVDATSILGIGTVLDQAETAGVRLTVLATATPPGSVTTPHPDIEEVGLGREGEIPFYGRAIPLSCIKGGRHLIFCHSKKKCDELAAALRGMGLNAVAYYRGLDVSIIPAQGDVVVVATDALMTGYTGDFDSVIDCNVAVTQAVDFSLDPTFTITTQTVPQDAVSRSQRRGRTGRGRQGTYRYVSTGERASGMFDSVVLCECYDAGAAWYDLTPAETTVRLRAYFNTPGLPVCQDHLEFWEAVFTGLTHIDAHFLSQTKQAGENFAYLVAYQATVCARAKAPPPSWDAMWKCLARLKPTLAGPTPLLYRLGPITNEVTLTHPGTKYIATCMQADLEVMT
# test_summary: filter binding; 3 mM Mg2+; (stopped-flow kon 69 uM-1 s-1, Fig 2B); 25 mM MOPS-NH4+ pH 6.5, 3 mM MgCl2, 30 mM NaCl, 1% glycerol, 2 mM DTT, 0.1% Triton X-100; filter binding 37 C, 0.5 nM RNA, Hill fit; stopped flow 25 C
# condition_info: protein: recombinant; tags: His6-SUMO removed (native N terminus); 5' Cy3 top strand via C3 amino linker (stopped flow); 3' overhang 12 nt on strand 1
property: pKd
// pKd: -log10(molar conc.)

Ask: What pKd value was documented for this binder, 12bp/12-OH (dsRNA) RNA 1: CGGCAGCGAGGCAGAGGAGCAGCA RNA 2: GCCUCGCUGCCG ?
Result: 8.11
